# maps each entry to its CC50 at 48 h
# method: Cytotoxicity assay
# Type: cell-based, African Green Monkey
# measurement-conditions: African green monkey, VERO cells (kidney epithelial cells)

Exercise: Can you share its CC50 at 48 h? I mean this compound: COc1cccc2c1C(=O)c1c(O)c3c(c(O)c1C2=O)C[C@@](O)(C(=O)CO)C[C@@H]3O[C@H]1C[C@H](N)[C@H](O)[C@H](C)O1 [Doxorubicin, reference compound]
Solution: 6.4 µM

Exercise: Also check OC(CCN1CCN(c2ccc(C(F)(F)F)cc2)CC1)c1csc2ccc(F)cc12 (stereo not drawn)
Solution: > 250 µM

Exercise: And O=[N+]([O-])c1ccc(N2CCN(CCC(O)c3csc4ccc(F)cc34)CC2)c(C(F)(F)F)c1 (stereo not drawn) ?
Solution: > 200 µM

====

A collection of molecules and their measured log10(CC50 at 48 h)
# method: Cytotoxicity assay
# Format: cell-based, African Green Monkey
# measurement-conditions: African green monkey, VERO cells (kidney epithelial cells)
Values reflect log10 of reported CC50 at 48 h (µM).

A selection of reference data follows.
O=[N+]([O-])c1ccc(N2CCN(CCC(O)c3ccc(F)cc3)CC2)c(C(F)(F)F)c1 (centres unmarked) :: 1.94
O=[N+]([O-])c1ccc(N2CCC(NCCC(O)c3ccc(F)c4ccccc34)CC2)c(C(F)(F)F)c1 (centres unmarked) :: 0.74
OC(CCN1CC=C(c2ccc(F)cc2)CC1)c1ccc(F)c2ccccc12 (centres unmarked) :: 1.69

Exercise: // query log10(CC50 at 48 h) value for entry OC(CCN1CC=C(c2ccc(F)cc2)CC1)c1ccc2ccccc2c1 (centres unmarked)
Solution: 1.39

Exercise: What do you have for O=[N+]([O-])c1ccc(N2CCCN(CCC(O)c3csc4ccc(F)cc34)CC2)c(C(F)(F)F)c1 (centres unmarked) ?
Solution: 1.12

====

# System: VERO cells
# method: Cytotoxicity assay
# Assay type: cell-based, African Green Monkey
# measurement-conditions: inhibition of 50% of VERO cells survival, 48 h, MTT
Listed here are compounds together with their documented CC50.

Before answering, review these 2 worked examples.
OC(CCN1CCN(c2ccc(C(F)(F)F)cc2)CC1)c1ccc(F)c2ccccc12 (stereo not drawn) [Compound 21] :: > 100 µM
O=[N+]([O-])c1ccc(N2CCC(NCCC(O)c3csc4ccc(F)cc34)CC2)c(C(F)(F)F)c1 (stereo not drawn) [Compound 18] :: 6.3 µM

Shift focus to the following entry.
Exercise: Would you mind telling me what CC50 value was observed for OC(CCN1CC=C(c2ccc(F)cc2)CC1)c1ccc(C(F)(F)F)cc1 (stereo not drawn) [Compound 20] ?
Solution: > 350 µM

====

// reported CC50 at 48 h for each item listed
# method: Cytotoxicity assay
# Assay type: cell-based, African Green Monkey
# measurement-conditions: African green monkey, VERO cells (kidney epithelial cells)

CCN(CC)CCCC(C)Nc1ccnc2cc(Cl)ccc12 (stereo not drawn) [CQ, chloroquine, reference compound] :: > 50 µM
O=[N+]([O-])c1cc(C(F)(F)F)ccc1N1CCN(CCC(O)c2csc3ccc(F)cc23)CC1 (stereo not drawn) :: > 150 µM

Okay, now this molecule:
Exercise: // returns reported CC50 at 48 h for input OC(CCN1CC=C(c2ccc(F)cc2)CC1)c1ccc(F)cc1 (stereo not drawn)
Solution: > 100 µM

The values you see were collected from paper PMC5061469.
